Values were extracted from BindingDB's records for doi:10.1021/bi990174x.

molecular target: Dimer of Gag-Pol polyprotein [501-599,Q508K,L534I,L564I,C568A,C596A] (Human immunodeficiency virus 1, UniProt P03367, C568A/C596A/L534I/L564I/Q508K); construct: 501-599; test: Protease Inhibition Assay; details: pH 6.5; 37 °C
Test Readout: pKi
Note on units: pKi is unitless, being -log10 of a concentration expressed in mol/L.

Exercise: In one line, give reported pKi of the entry CCC(=O)N[C@H](C(=O)N[C@@H](Cc1ccc(O)cc1)[C@H](O)CN[C@H]1Cc2ccc(cc2)OCCCNC(=O)[C@H](C(C)CC)NC1=O)C(C)C (stereo partly specified) .
Key: 8.52
